- System: RAW264.7
- Measurement description: Antiinflammatory activity against mouse RAW264.7 cells assessed as inhibition of LPS-induced nitric oxide production measured after 24 hrs
- Assay type: functional, cell-based
- Reported conditions: RAW264.7, 24 h
Would you mind telling me the reported pIC50 of each entry?
Numbers only, as −log10 of the molar value.

Below: 4 molecules and their reported pIC50.
- Molecule: "C=C1CC[C@H]2C(C)(C)CCC[C@]2(C)[C@H]1/C=C/C1=CC(=O)O[C@H]1O"
  Target of assay: "RAW264.7"
  pIC50: 5.62
- Molecule: "C=C1CC[C@H]2C(C)(C)CCC[C@]2(C)[C@H]1/C=C/C(=O)O"
  Target of assay: "RAW264.7"
  pIC50: 4.63
- Molecule: "C=C1CC[C@H]2C(C)(C)CCC[C@]2(C)[C@H]1C/C=C1\\CC(OC)OC1=O (stereo partly drawn)"
  Target of assay: "RAW264.7"
  pIC50: 4.61
- Molecule: "CC1(C)CCC[C@]2(C)CC3=C(C[C@@H]12)C(=O)CC3"
  Target of assay: "RAW264.7"
  pIC50: 4.37

Batch lookup, pIC50 per entry.
1. C=C1CC[C@H]2C(C)(C)CCC[C@]2(C)[C@H]1C/C=C1\CC(=O)OC1=O
2. C=C1CC[C@H]2C(C)(C)CCC[C@]2(C)[C@H]1C/C=C(/C=O)CO
3. C=C1CC[C@H]2C(C)(C)CCC[C@]2(C)[C@H]1C/C=C1\CCOC1=O

A:
1. 4.96
2. 4.54
3. 4.51

* * *

- Measurement description: Inhibition of yeast alpha-glucosidase using p-nitrophenyl-alpha-D-glucopyranoside as substrate preincubated for 30 mins followed by substrate addition and measured after 30 mins by microplate reader analysis
- Design: species or system Saccharomyces cerevisiae
Measured property: IC50 (µM)
Numbers only, in µM.

Below: 2 molecules and their reported IC50.
- Molecule: "C=C1CC[C@H]2C(C)(C)CCC[C@]2(C)[C@H]1C/C=C1\\CC(=O)OC1=O"
  Uom: "µM"
  IC50: 21.1
- Molecule: "C=C1CC[C@H]2C(C)(C)CCC[C@]2(C)[C@H]1C/C=C1\\CC(OCC)OC1=O (stereo not given in full)"
  Uom: "µM"
  IC50: 13.8

Query molecule follows.
Q: Let me know recorded IC50 for `C=C1CC[C@H]2C(C)(C)CCC[C@]2(C)[C@H]1CCC1=CC(=O)OC1` , thanks.
A: 14.8

* * *

- System: Saccharomyces cerevisiae
- Measurement description: Inhibition of yeast alpha-glucosidase at 50 uM using p-nitrophenyl-alpha-D-glucopyranoside as substrate preincubated for 30 mins followed by substrate addition and measured after 30 mins by microplate reader analysis
Please use Y whenever inhibition is not below 40%, and N whenever it is.

Q: Hello, I need to know if `C=C1CC[C@H]2C(C)(C)CCC[C@]2(C)[C@H]1CCC1=CC(=O)OC1` has measured inhibition not below 40%. Thanks!
A: Y

Q: Hello, I need to know if `C=C1CC[C@H]2C(C)(C)CCC[C@]2(C)[C@H]1C/C=C1\CC(=O)OC1=O` has measured inhibition not below 40%. Thanks!
A: Y

* * *

Would you mind telling me the reported pIC50 of each entry?
- Measurement description: Inhibition of yeast alpha-glucosidase using p-nitrophenyl-alpha-D-glucopyranoside as substrate preincubated for 30 mins followed by substrate addition and measured after 30 mins by microplate reader analysis
- Set-up: species or system Saccharomyces cerevisiae
Answers are plain numbers, as −log10 of the molar value.

- Compound: "C=C1CC[C@H]2C(C)(C)CCC[C@]2(C)[C@H]1CCC1=CC(O)OC1=O (some centres undefined)"
  Measured property: "pIC50"
  Reported value: 4.76
- Compound: "O=c1c(-c2ccc(O)cc2)coc2cc(O)cc(O)c12"
  Measured property: "pIC50"
  Reported value: 4.75
- Compound: "OC[C@H]1NC[C@H](O)[C@@H](O)[C@@H]1O"
  Measured property: "pIC50"
  Reported value: 3.94
- Compound: "C=C1CC[C@H]2C(C)(C)CCC[C@]2(C)[C@H]1C/C=C1\\CC(OC)OC1=O (some centres undefined)"
  Measured property: "pIC50"
  Reported value: 4.80

Batch lookup, pIC50 per entry.
1. C=C1CC[C@H]2C(C)(C)CCC[C@]2(C)[C@H]1C/C=C1\CCOC1=O
2. C=C1CC[C@H]2C(C)(C)CCC[C@]2(C)[C@H]1/C=C/C1=CC(=O)O[C@H]1O

A:
1. 4.77
2. 5.00

* * *

- Test system: RAW264.7
- Measurement description: Antiinflammatory activity against mouse RAW264.7 cells assessed as inhibition of LPS-induced nitric oxide production measured after 24 hrs
- Type: functional, cell-based
- Reported conditions: RAW264.7, 24 h
Measured property: IC50

Below: 4 compounds and their reported IC50.
- Compound: "C=C1CC[C@H]2C(C)(C)CCC[C@]2(C)[C@H]1C/C=C1\\CC(OCC)OC1=O (stereo not given in full)"
  IC50: "31.2 µM"
- Compound: "CNC(=N)NCCC[C@H](N)C(=O)O"
  IC50: "27.2 µM"
- Compound: "C=C1CC[C@H]2C(C)(C)CCC[C@]2(C)[C@H]1CCC1=CC(=O)OC1"
  IC50: "18.8 µM"
- Compound: "C=C1CC[C@H]2C(C)(C)CCC[C@]2(C)[C@H]1CCC1=CC(O)OC1=O (stereo not given in full)"
  IC50: "25.8 µM"

Q: Let me know recorded IC50 for `C=C1CC[C@H]2C(C)(C)CCC[C@]2(C)[C@H]1C/C=C(\CC(=O)OCC)C(=O)O` , thanks.
A: > 50 µM

* * *

- Measurement description: Mixed-type inhibition of yeast alpha-glucosidase assessed as inhibition constant using p-NPG as substrate measured up to 180 mins by Lineweaver-Burk plot analysis
- Set-up: species or system Saccharomyces cerevisiae
Measured property: pKi
Give bare numbers, as −log10 of the molar value.

Q: Let me know recorded pKi for `C=C1CC[C@H]2C(C)(C)CCC[C@]2(C)[C@H]1/C=C/C1=CC(=O)O[C@H]1O` , thanks.
A: 5.02

* * *

Would you mind telling me the reported inhibition of each entry?
- System: Saccharomyces cerevisiae
- Measurement description: Inhibition of yeast alpha-glucosidase at 50 uM using p-nitrophenyl-alpha-D-glucopyranoside as substrate preincubated for 30 mins followed by substrate addition and measured after 30 mins by microplate reader analysis
Give bare numbers, in %.

Batch lookup, inhibition per entry.
1. C=C1CC[C@H]2C(C)(C)CCC[C@]2(C)[C@H]1C/C=C(/C=O)CO
2. OC[C@H]1NC[C@H](O)[C@@H](O)[C@@H]1O
3. O=c1c(-c2ccc(O)cc2)coc2cc(O)cc(O)c12
4. C=C1CC[C@H]2C(C)(C)CCC[C@]2(C)[C@H]1CCC1=CC(O)OC1=O (some centres not stated)
5. C=C1CC[C@H]2C(C)(C)CCC[C@]2(C)[C@H]1C/C=C1\CC(OC)OC1=O (some centres not stated)
6. C=C1CC[C@H]2C(C)(C)CCC[C@]2(C)[C@H]1/C=C/C1=CC(=O)O[C@H]1O
7. CC1(C)CCC[C@]2(C)CC3=C(C[C@@H]12)C(=O)CC3
8. C=C1CC[C@H]2C(C)(C)CCC[C@]2(C)[C@H]1C/C=C(\CC(=O)OCC)C(=O)O

A:
[27.1, 36.8, 70, 87.4, 87.8, 95.7, 12.4, 38.7]

* * *

Would you mind telling me the reported pIC50 of each entry?
- Measurement description: Inhibition of yeast alpha-glucosidase using p-nitrophenyl-alpha-D-glucopyranoside as substrate preincubated for 30 mins followed by substrate addition and measured after 30 mins by microplate reader analysis
- Design: species or system Saccharomyces cerevisiae
pIC50: −log10 of the molar value.

Below: 2 molecules and their reported pIC50.
- Smiles repr: "C=C1CC[C@H]2C(C)(C)CCC[C@]2(C)[C@H]1C/C=C(/C=O)CCO"
  pIC50: "< 4.30"
- Smiles repr: "C=C1CC[C@H]2C(C)(C)CCC[C@]2(C)[C@H]1C/C=C(/C=O)CO"
  pIC50: "< 4.30"

Q: Let me know recorded pIC50 for `C=C1CC[C@H]2C(C)(C)CCC[C@]2(C)[C@H]1C/C=C(\CC(=O)OCC)C(=O)O` , thanks.
A: < 4.30

* * *

- Tested on: Saccharomyces cerevisiae
- Measurement description: Inhibition of yeast alpha-glucosidase at 50 uM using p-nitrophenyl-alpha-D-glucopyranoside as substrate preincubated for 30 mins followed by substrate addition and measured after 30 mins by microplate reader analysis
Would you mind telling me the reported inhibition of each entry?
Give bare numbers, in %.

Below: 3 compounds and their reported inhibition.
- Compound: "C=C1CC[C@H]2C(C)(C)CCC[C@]2(C)[C@H]1C/C=C1\\CCOC1=O"
  inhibition (%): 89.1
- Compound: "C=C1CC[C@H]2C(C)(C)CCC[C@]2(C)[C@H]1C/C=C(/C=O)CCO"
  inhibition (%): 36.9
- Compound: "C=C1CC[C@H]2C(C)(C)CCC[C@]2(C)[C@H]1/C=C/C(=O)O"
  inhibition (%): 33.2

Query compound follows.
Q: Let me know recorded inhibition for C=C1CC[C@H]2C(C)(C)CCC[C@]2(C)[C@H]1C/C=C1\CC(OCC)OC1=O (some centres undefined) , thanks.
A: 89.3
